measuredOn: hOT7T175 (Homo sapiens, UniProt Q969F8, L364H)
Construct: expressed in transfected cells
Sequence (Q969F8 whole entry L364H): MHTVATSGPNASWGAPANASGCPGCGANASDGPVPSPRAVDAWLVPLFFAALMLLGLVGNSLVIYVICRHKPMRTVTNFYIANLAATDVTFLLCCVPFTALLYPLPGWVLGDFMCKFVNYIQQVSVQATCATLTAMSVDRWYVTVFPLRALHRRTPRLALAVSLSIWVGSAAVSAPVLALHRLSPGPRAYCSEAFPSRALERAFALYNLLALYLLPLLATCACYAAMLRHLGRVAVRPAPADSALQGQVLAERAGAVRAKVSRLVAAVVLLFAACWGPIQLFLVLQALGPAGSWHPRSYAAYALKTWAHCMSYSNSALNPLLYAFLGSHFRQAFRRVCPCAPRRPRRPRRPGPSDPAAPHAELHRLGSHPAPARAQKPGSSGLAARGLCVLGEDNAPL
Format: cell-based
conditionNotes: hOT7T175/CHO, FLIPR, evaluation for 40 seconds after initiation of the reaction
Non-standard residues stand in square brackets, D forms with d. Primed or numbered codes have the meaning given here. Arg(Me) = CNC(=N)NCCC[C@H](N)C(=O)O; Adipoyl′ = not defined here; azaGly = NNC(=O)O
endpointLabel: Specific Act. (EC50/MS10 EC50)
Give bare numbers.

Look over these answered cases.
INSERT INTO measurements (substance, endpointlabel, observedresult) VALUES
  ('Ac-D-Tyr-D-Trp-Gly-Ser-Phe-AzaGly-Leu-Arg(Me)-Trp-NH2 (Ac-[dY][dW]GSF[azaGly]L[Arg(Me)]W-NH2; SMILES CNC(=N)NCCC[C@H](NC(=O)[C@H](CC(C)C)NC(=O)NNC(=O)[C@H](Cc1ccccc1)NC(=O)[C@H](CO)NC(=O)CNC(=O)[C@@H](Cc1c[nH]c2ccccc12)NC(=O)[C@@H](Cc1ccc(O)cc1)NC(C)=O)C(=O)N[C@@H](Cc1c[nH]c2ccccc12)C(N)=O) [Compound No. 686]', 'Specific Act. (EC50/MS10 EC50)', 0.6),
  ('Ac-Tyr-D-Pya(4)-Asn-Thr-Phe-AzaGly-Leu-Arg(Me)-Trp-NH2 [Compound No. 611]', 'Specific Act. (EC50/MS10 EC50)', 1.7),
  ('3-Phenylpropionyl-Asn-Thr-Phe-AzaGly-Leu-Arg(Me)-Trp-NH2 [Compound No. 505]', 'Specific Act. (EC50/MS10 EC50)', 0.7),
  ('Ac-D-Tyr-D-Pya(2)-Asn-Thr-Phe-AzaGly-Leu-Arg(Me)-Trp-NH2 [Compound No. 658]', 'Specific Act. (EC50/MS10 EC50)', 0.4),
  ('Adipoyl-D-Trp-Asn-Thr-Phe-AzaGly-Leu-Arg(Me)-Trp-NH2 ({Adipoyl′}-[dW]NTF[azaGly]L[Arg(Me)]W-NH2) [Compound No. 671]', 'Specific Act. (EC50/MS10 EC50)', 3.6);

Parameters: items (list). Returns: Specific Act. (EC50/MS10 EC50) for each item.
1. D-Arg-D-Arg-Acp-D-Tyr-D-Trp-Asn-Thr-Phe-AzaGly-Leu-Arg(Me)-Trp-NH2 [Compound No. 542]
2. D-Dap-Acp-D-Tyr-D-Trp-Asn-Thr-Phe-AzaGly-Leu-Arg(Me)-Trp-NH2 [Compound No. 552]
3. Dap-D-Tyr-Asn-Trp-Asn-Ser-Phe-Gly-Leu-Arg(Me)-Phe-NH2 [Compound No. 387]
4. Ac-D-Tyr-D-Trp-Asn-Thr-Phe-AzaGly-Leu-Arg(Me2)sym-Trp-NH2 [Compound No. 608]
5. 6-Aminocaproyl-D-Trp-Asn-Thr-Phe-AzaGly-Leu-Arg(Me)-Trp-NH2 ({6‑Aminocaproyl}-[dW]NTF[azaGly]L[Arg(Me)]W-NH2) [Compound No. 674]
6. D-Tyr-D-Pya(4)-Asn-Pro-Phe-AzaGly-Leu-Arg(Me)-Trp-NH2 [Compound No. 528]
7. Amidino-D-Tyr-D-Trp-Asn-Thr-Phe-AzaGly-Leu-Arg(Me)-Trp-NH2 [Compound No. 614]

(A)
[1.4, 2.3, 5.0, 2.2, 2, 1.4, 0.8]

---

measuredOn: hOT7T175 (Homo sapiens, UniProt Q969F8, L364H)
Construct: expressed in transfected cells
Type: cell-based
conditionNotes: hOT7T175/CHO, FLIPR, evaluation for 40 seconds after initiation of the reaction
Non-standard residues stand in square brackets, D forms with d. No end group written: not given here. Arg(Me) = CNC(=N)NCCC[C@H](N)C(=O)O; azaGly = NNC(=O)O
endpointLabel: Specific Act. (EC50/MS10 EC50)

INSERT INTO measurements (substance, endpointlabel, observedresult) VALUES
  ('D-Tyr-D-Pya(4)-Asn-Val-Phe-AzaGly-Leu-Arg(Me)-Trp-NH2 [Compound No. 515]', 'Specific Act. (EC50/MS10 EC50)', 1.0),
  ('Ac-D-Tyr-D-Trp-Asn-Thr-Phe-AzaGly-Leu-Arg(Me)-D-Trp-NH2 (Ac-[dY][dW]NTF[azaGly]L[Arg(Me)][dW]-NH2; SMILES CNC(=N)NCCC[C@H](NC(=O)[C@H](CC(C)C)NC(=O)NNC(=O)[C@H](Cc1ccccc1)NC(=O)[C@@H](NC(=O)[C@H](CC(N)=O)NC(=O)[C@@H](Cc1c[nH]c2ccccc12)NC(=O)[C@@H](Cc1ccc(O)cc1)NC(C)=O)[C@@H](C)O)C(=O)N[C@H](Cc1c[nH]c2ccccc12)C(N)=O) [Compound No. 689]', 'Specific Act. (EC50/MS10 EC50)', 2.3),
  ('Glycoloyl-D-Tyr-D-Trp-Asn-Thr-Phe-AzaGly-Leu-Arg(Me)-Trp-NH2 (Glycoloyl-[dY][dW]NTF[azaGly]L[Arg(Me)]W-NH2) [Compound No. 681]', 'Specific Act. (EC50/MS10 EC50)', 1.2);

Please turn your attention to the following entry.
The measured Specific Act. (EC50/MS10 EC50) that Tyr-D-Tyr-D-Trp-Asn-Thr-Phe-AzaGly-Leu-Arg(Me)-Trp-NH2 (Y[dY][dW]NTF[azaGly]L[Arg(Me)]W-NH2; N-terminus assumed; SMILES CNC(=N)NCCC[C@H](NC(=O)[C@H](CC(C)C)NC(=O)NNC(=O)[C@H](Cc1ccccc1)NC(=O)[C@@H](NC(=O)[C@H](CC(N)=O)NC(=O)[C@@H](Cc1c[nH]c2ccccc12)NC(=O)[C@@H](Cc1ccc(O)cc1)NC(=O)[C@@H](N)Cc1ccc(O)cc1)[C@@H](C)O)C(=O)N[C@@H](Cc1c[nH]c2ccccc12)C(N)=O) [Compound No. 675] showed for hOT7T175 (Homo sapiens, UniProt Q969F8, L364H) is 0.8

---

measuredOn: hOT7T175 (Homo sapiens, UniProt Q969F8, L364H)
Construct: expressed in transfected cells
Assay type: cell-based
conditionNotes: hOT7T175/CHO, FLIPR, evaluation for 40 seconds after initiation of the reaction
Non-standard residues stand in square brackets, D forms with d. Primed or numbered codes have the meaning given here. No end group written: not given here. *: point of attachment. Arg(Me) = CNC(=N)NCCC[C@H](N)C(=O)O; Abu = CC[C@H](N)C(=O)O; Hexanoyl = CCCCCC(=O)*; azaGly = NNC(=O)O
endpointLabel: Specific Act. (EC50/MS10 EC50)
Numbers only.

Look over these answered cases.
INSERT INTO results (substance, endpointlabel, observedresult) VALUES
  ('3-(3-Pyridyl)propionyl-Asn-Ser-Phe-AzaGly-Leu-Arg(Me)-Trp-NH2 [Compound No. 386]', 'Specific Act. (EC50/MS10 EC50)', 2.9),
  ('Ac-D-Tyr-D-Trp-Asn-Thr-Phe-AzaGly-Leu-Har(Me)-Trp-NH2 [Compound No. 646]', 'Specific Act. (EC50/MS10 EC50)', 1.8),
  ('Ac-D-Tyr-D-Trp-Asn-Thr-Phe-AzaGly-Abu-Arg(Me)-Trp-NH2 (Ac-[dY][dW]NTF[azaGly][Abu][Arg(Me)]W-NH2; SMILES CC[C@H](NC(=O)NNC(=O)[C@H](Cc1ccccc1)NC(=O)[C@@H](NC(=O)[C@H](CC(N)=O)NC(=O)[C@@H](Cc1c[nH]c2ccccc12)NC(=O)[C@@H](Cc1ccc(O)cc1)NC(C)=O)[C@@H](C)O)C(=O)N[C@@H](CCCNC(=N)NC)C(=O)N[C@@H](Cc1c[nH]c2ccccc12)C(N)=O) [Compound No. 698]', 'Specific Act. (EC50/MS10 EC50)', 2.2),
  ('Ac-D-Tyr-D-Trp-Asn-Thr-Phe-AzaGly-Leu-Pya(4)-Trp-NH2 (Ac-[dY][dW]NTF[azaGly]L-{Pya(4)-Trp-NH2}) [Compound No. 688]', 'Specific Act. (EC50/MS10 EC50)', 9.7),
  ('Hexanoyl-D-Trp-Asn-Thr-Phe-AzaGly-Leu-Arg(Me)-Trp-NH2 (Hexanoyl-[dW]NTF[azaGly]L[Arg(Me)]W-NH2; SMILES CCCCCC(=O)N[C@H](Cc1c[nH]c2ccccc12)C(=O)N[C@@H](CC(N)=O)C(=O)N[C@H](C(=O)N[C@@H](Cc1ccccc1)C(=O)NNC(=O)N[C@@H](CC(C)C)C(=O)N[C@@H](CCCNC(=N)NC)C(=O)N[C@@H](Cc1c[nH]c2ccccc12)C(N)=O)[C@@H](C)O) [Compound No. 667]', 'Specific Act. (EC50/MS10 EC50)', 1.4);

Parameters: items (list). Returns: Specific Act. (EC50/MS10 EC50) for each item.
1. D-Tyr-D-Tyr-D-Trp-Asn-Thr-Phe-AzaGly-Leu-Arg(Me)-Trp-NH2 ([dY][dY][dW]NTF[azaGly]L[Arg(Me)]W-NH2; N-terminus assumed; SMILES CNC(=N)NCCC[C@H](NC(=O)[C@H](CC(C)C)NC(=O)NNC(=O)[C@H](Cc1ccccc1)NC(=O)[C@@H](NC(=O)[C@H](CC(N)=O)NC(=O)[C@@H](Cc1c[nH]c2ccccc12)NC(=O)[C@@H](Cc1ccc(O)cc1)NC(=O)[C@H](N)Cc1ccc(O)cc1)[C@@H](C)O)C(=O)N[C@@H](Cc1c[nH]c2ccccc12)C(N)=O) [Compound No. 650]
2. 3-Pyridinepropionyl-D-Trp-Asn-Thr-Phe-AzaGly-Leu-Arg(Me)-Trp-NH2 ({3‑Pyridinepropionyl}-[dW]NTF[azaGly]L[Arg(Me)]W-NH2) [Compound No. 670]

(A)
0.6
0.9

The origin of these recorded values is patent US8778871B2.
